Tested on: CCRIS mutagenicity, Ames/micronucleus/aberration tests
Experiment: CCRIS mutagenicity studies
Conditions: Test System: AMES SALMONELLA TYPHIMURIUM; Strain/Indicator: TA1537; Metabolic Activation: NONE; Method: PREINCUBATION
The source made the active and inactive calls. No rule for the calls is given here.
Your reply should match one of these outcome classes. class 1 = active, class 0 = inactive

These solved cases illustrate the format of a correct answer.
> print(dat)
                                item.smiles    group
1                   O=[N+]([O-])c1ccccc1CCO  class 0
2                     OCCN1CN(CCO)CN(CCO)C1  class 0
3                              Nc1ccc(N)cc1  class 0
4      O=C1c2cccc(O)c2C(=O)c2c(O)cc(CO)cc21  class 1
5  COc1ccc(C(Cl)=C(c2ccc(OC)cc2)c2ccc(OC)cc2)cc1  class 0
6                                Clc1ccccc1  class 0

We next turn to a different molecule, shown below.
Kindly provide the recorded test outcome for the following molecule: Nc1c(Br)cc([N+](=O)[O-])cc1[N+](=O)[O-]
class 1

====

Test system: CCRIS mutagenicity, Ames/micronucleus/aberration tests
Test: CCRIS mutagenicity studies
Conditions: Test System: AMES SALMONELLA TYPHIMURIUM; Strain/Indicator: TA98; Metabolic Activation: NONE; Method: PREINCUBATION
Activity calls are given as the source filed them. The rule behind the calls is not given here.
The reply should be one of these categories: T (active), F (inactive)

Compound	Group
CCCCCCCCCCCCOCCO	F
O=[N+]([O-])c1cc2ccccc2c2ccccc12	T
NC1=CC(=O)C(=O)c2ccccc21	F
Cc1cccn2c1nc1ccc(NO)nc12	T
O=C1OCCO1	F
Cc1c[nH]c(=S)[nH]c1=O	F
CCOC(=O)C1OC1(C)c1ccccc1 (stereo not given)	F
Nc1c(Br)cc([N+](=O)[O-])cc1[N+](=O)[O-]	T

Test call for this compound, please: CCCCOC(=O)c1ccccc1N
F

Given CNc1ccc2ncc(-c3ccccc3)nc2c1C , state the outcome it received in this test.
F

What did this assay record as the result for C[Si]1(C)O[Si](C)(C)O[Si](C)(C)O[Si](C)(C)O1 ?
F

What is the recorded call for this compound in the test? N#CCBr
F

Just curious, what result did C1CCC(NC2CCCCC2)CC1 get here?
F

GET /call?item= Clc1ccccc1 returns the recorded outcome of this test.
F

Field: outcome | Entry: CCCCCc1cc(O)c2c(c1)OC(C)(C)[C@@H]1CCC(C)=C[C@@H]21
F

Kindly provide the recorded test outcome for the following compound: C[C@H](CCC(=O)O)[C@H]1CC[C@H]2[C@@H]3C(=O)C[C@@H]4C[C@H](O)CC[C@]4(C)[C@H]3CC[C@]12C
F

What did the test return for FC(Cl)(Cl)Cl ?
F

Which outcome did this test record for the compound O=C(OC[C@@H]1O[C@H](OC(=O)c2cc(O)c(O)c(OC(=O)c3cc(O)c(O)c(O)c3)c2)[C@@H](OC(=O)c2cc(O)c(O)c(OC(=O)c3cc(O)c(O)c(O)c3)c2)[C@H](OC(=O)c2cc(O)c(O)c(OC(=O)c3cc(O)c(O)c(O)c3)c2)[C@H]1OC(=O)c1cc(O)c(O)c(OC(=O)c2cc(O)c(O)c(O)c2)c1)c1cc(O)c(O)c(OC(=O)c2cc(O)c(O)c(O)c2)c1 ?
F
